Target: Human cathepsin B (Homo sapiens)
Construct: purchased Calbiochem Corp
Assay: Measurement of cathepsin B inhibitory activity (Z-Arg-Arg-MCA fluorescent substrate)
Format: biochemical
Details: selectivity ratio B/K
*1 amine or outer side, *2 acyl side, *3 side chain or, on linkers, in order; H or OH if unused. Where a SMILES comes first, the peptide text is derived from it. [ ]: non-standard residue; d: D form. The star is where a group is joined. Ac6c = NC1(C(=O)O)CCCCC1; Morpholide = C1CN(*)CCO1; Nle = CCCC[C@H](N)C(=O)O; Cbz = O=C(OCc1ccccc1)*; CO = O=C([*:1])[*:2]
reported-property: B/K (ratio of cathepsin B IC50 to cathepsin K IC50)

Illustrative cases are given below, each with its answer.
1. CCCC[C@@H](C=O)NC(=O)C1(NC(=O)N2CCOCC2)CCCCC1 [Example 10] ({Morpholide-CO}-[Ac6c]-[Nle]-aldehyde)
12
2. CCCC[C@@H](C=O)NC(=O)[C@H](CC(C)C)NC(=O)OCc1ccccc1 [Reference Example 185]
11
3. CCCC[C@@H](C=O)NC(=O)[C@H](CC(C)C)NC(=O)N1CCOCC1 [Reference Example 186]
4.3
4. CC(C)C[C@H](NC(=O)c1ccco1)C(=O)N[C@H](C=O)C(C)C [Reference Example 187]
30

[a] CC(C)[C@@H](C=O)NC(=O)C1(NC(=O)c2ccco2)CCCCC1
[b] CCCC[C@@H](C=O)NC(=O)C1(NC(=O)OCc2ccccc2)CCCCC1 [Example 8] (Cbz-[Ac6c]-[Nle]-aldehyde)
[c] CC(C)C[C@H](NC(=O)OCc1ccccc1)C(=O)N[C@H](C=O)C(C)C [Reference Example 184] (Cbz-Leu-Val-aldehyde)
[d] CC(C)[C@@H](C=O)NC(=O)C1(NC(=O)OCc2ccccc2)CCCCC1 [Example 7] (Cbz-[Ac6c]-Val-aldehyde)
Please list these in order of increasing B/K (ratio of cathepsin B IC50 to cathepsin K IC50). Thank you! # the answer lists labels in the order requested b, c, a, d
(b: 35, c: 58, a: 87, d: 230)
